- System: IGROV1 ovarian
- assay_method_text: NCI-60 one-dose screen, 48 h (100 = growth as untreated, 0 = no growth, -100 = all killed)
- assay_setup: 10 µM unless noted
Compounds without any hit were thinned out: in the full panel of roughly 83,000, 20% have a hit. Activity calls are given as the source filed them. How the source made its calls: active means growth percent below 10; inactive means the rest.
value_type: growth

compound: COc1ccc2c(c1)cn1c3ccc(O)cc3nc(N)c21
measured_target: IGROV1 ovarian
assay_result: 17.4% (inactive)
//
compound: Nc1nc(=S)c2ncn(C3OC(COC(=O)c4ccc(Cl)cc4)C(OC(=O)c4ccc(Cl)cc4)C3OC(=O)c3ccc(Cl)cc3)c2[nH]1 (stereo not drawn)
measured_target: IGROV1 ovarian
assay_result: 93.5% (inactive)
//
compound: O=[N+]([O-])c1cc(Br)cc2c1[nH]c1ccc(Br)cc12
measured_target: IGROV1 ovarian
assay_result: 36.6% (inactive)
//
compound: COC(=O)CNC(=O)[C@@H](OC)[C@@H]1Cc2cc3cc(OC4CC(OC5CC(O)C(O)C(C)O5)C(O)C(C)O4)c(C)c(O)c3c(O)c2C(=O)[C@H]1OC1CC(OC2CC(OC3CC(C)(O)C(O)C(C)O3)C(O)C(C)O2)C(O)C(C)O1 (stereo partly drawn)
measured_target: IGROV1 ovarian
assay_result: 32% (inactive)
//
compound: CCN(CC)Cc1cc(Nc2cc(C(F)(F)F)c(C#N)c3nc4ccccc4n23)ccc1O
measured_target: IGROV1 ovarian
assay_result: 28.9% (inactive)
//
compound: COc1ccc(Cl)c(Nc2nc3ccccc3nc2NS(=O)(=O)c2cccc(NC(=O)C(C)(C)N)c2)c1
measured_target: IGROV1 ovarian
assay_result: -16.9% (active)
//
compound: COc1cc(C(=O)NNC(=O)c2ccc(NC(=O)CCl)cc2)cc(OC)c1OC
measured_target: IGROV1 ovarian
assay_result: 75.1% (inactive)
//
compound: COc1ccc(C2OC(c3cc(-c4cc5ccccc5o4)nn3-c3ccccc3)=NN2C(C)=O)cc1 (stereo not drawn)
measured_target: IGROV1 ovarian
assay_result: 89.4% (inactive)
